// reported solubility per item
# measurementNotes: water solubility at 25℃
# Type: physicochemical
# assayContext: water

{"compound": "O=c1cc(-c2ccccc2)oc2cc(O)cc(O)c12 [chrysin]", "solubility": "84 µg/mL"}
{"compound": "O=c1c(O)c(-c2ccccc2)oc2cc(O)cc(O)c12 [galangin, 3,5,7-트리히드록시플라본]", "solubility": "572 µg/mL"}
{"compound": "O=c1cc(-c2ccccc2)oc2cc(O)ccc12 [7-hydroxyflavone, 7-Hydroxyflavone]", "solubility": "85 µg/mL"}
